Tested on: H9c2
Assay: protection of cardiomyocytes from stress damage, SAR follow-up, cell-based, panel, H9c2 and HL-1, H2O2, 2-deoxyglucose, ATP luminescence (AID 651642)
Details: H9c2/HL-1 cardiomyocyte 2-deoxyglucose damage, mean of runs, with 2-deoxyglucose
Active and inactive are the calls of the source.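 The calls were made as follows: active = average half-effect concentration of 10 µM or less in every one of the four cell panels; inactive = the rest.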

molecule | assayed-system | outcome
COc1cc(-c2cc(C(=O)NCC(=O)Nc3ccc(C(C)=O)cc3)c3cc(C)ccc3n2)cc(OC)c1OC | H9c2 | active
CCOC(=O)c1cccc(NC(=O)CNC(=O)c2cc(-c3cc(OC)c(OC)c(OC)c3)nc3ccc(C)cc23)c1 | H9c2 | active
COc1cc(-c2cc(C(=O)NCC(=O)Nc3cccc(C(C)=O)c3)c3cc(Br)ccc3n2)cc(OC)c1OC | H9c2 | active
COc1ccc(NC(=O)CNC(=O)c2cc(-c3cc(OC)c(OC)c(OC)c3)nc3ccccc23)cc1 | H9c2 | inactive
COc1cc(-c2cc(C(=O)Nc3cccc(C(C)=O)c3)c3cc(C)ccc3n2)cc(OC)c1OC | H9c2 | inactive
COc1cc(-c2cc(C(=O)Nc3cccc(C(C)=O)c3)c3ccc(Cl)cc3n2)cc(OC)c1OC | H9c2 | inactive
CCOC(=O)c1cccc(NC(=O)CNC(=O)c2cc(-c3cc(OC)c(OC)c(OC)c3)nc3ccc(OC)cc23)c1 | H9c2 | active
COc1ccc2c(c1OC)C(=O)N1c3ccccc3C(=O)N(Cc3ccc(C)cc3C)C21 (stereo not drawn) | H9c2 | inactive

Data origin, for the record: PubChem BioAssay AID651642
